Data origin, for the record: patent US20260137697A1

Target: BRAF (Homo sapiens, UniProt P15056)
Construct: GST; purchased Millipore Sigma B4062-10UG
Sequence (P15056 whole entry): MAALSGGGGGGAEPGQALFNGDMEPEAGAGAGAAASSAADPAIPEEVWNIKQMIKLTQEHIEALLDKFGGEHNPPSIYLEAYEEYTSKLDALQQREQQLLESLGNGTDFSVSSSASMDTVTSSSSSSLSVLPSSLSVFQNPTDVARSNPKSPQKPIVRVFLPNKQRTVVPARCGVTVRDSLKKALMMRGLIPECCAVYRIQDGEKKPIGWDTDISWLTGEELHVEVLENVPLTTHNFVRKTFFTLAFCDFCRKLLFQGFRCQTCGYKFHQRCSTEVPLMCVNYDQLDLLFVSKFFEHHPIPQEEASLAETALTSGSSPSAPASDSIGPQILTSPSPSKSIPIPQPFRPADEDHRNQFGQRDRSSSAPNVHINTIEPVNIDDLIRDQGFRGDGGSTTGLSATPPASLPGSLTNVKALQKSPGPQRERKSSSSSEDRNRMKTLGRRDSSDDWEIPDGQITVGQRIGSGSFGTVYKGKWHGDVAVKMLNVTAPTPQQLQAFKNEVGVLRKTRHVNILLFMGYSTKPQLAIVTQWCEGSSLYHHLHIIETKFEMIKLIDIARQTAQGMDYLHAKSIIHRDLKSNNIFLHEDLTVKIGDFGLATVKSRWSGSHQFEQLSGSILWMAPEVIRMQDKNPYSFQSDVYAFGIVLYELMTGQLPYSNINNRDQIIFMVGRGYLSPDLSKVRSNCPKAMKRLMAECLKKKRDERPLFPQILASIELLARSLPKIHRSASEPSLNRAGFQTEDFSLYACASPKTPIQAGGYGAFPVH
Test: BRAF kinase activity assay (ADP-Glo)
Type: biochemical
Details: Table 3; 10 μM ATP, kinase-dead MEK1 substrate
Experimental: Compound preparation: solid samples of each substance in 1dram vials were suspended in DMSO (Fisher Scientific) at a stock concentration of 20 mM. Stocks were kept at −20° C. and protected from light. […] BRAF and CRAF kinase reactions were carried out for a total of 2 hours at 30° C. and then stopped by 1/2 dilution in ADP-Glo Reagent (cat. No. V9102; Promega; part V912C). […] The effect of each compound dilution on BRAF and CRAF kinase activity was expressed as % inhibition and calculated as follows. […]
pIC50: −log10 of the molar value.
reported endpoint: pIC50

Use these answered entries as a reference point.
O=S(=O)(Nc1ccc(F)c(Nc2ncnc3sc(-n4cnc5c(F)cccc54)nc23)c1F)c1cccc(Cl)c1Cl [Example 18] ... > 9.00
CC1(O)CCN(c2cccc3c2ncn3-c2nc3c(Nc4c(F)ccc(NS(=O)(=O)c5cccc(Cl)c5Cl)c4F)ncnc3s2)CC1 [Example 113] ... 8.00 to 9.00
CS(=O)(=O)N1CCN(c2cccc3c2ncn3-c2nc3c(Nc4c(F)ccc(NS(=O)(=O)c5cccc(Cl)c5Cl)c4F)ncnc3s2)CC1 [Example 155] ... 8.00 to 9.00

input: Under BRAF (Homo sapiens, UniProt P15056): pIC50 value of COCCC(=O)c1cn(-c2nc3c(Nc4c(F)ccc(NS(=O)(=O)c5cccc(Cl)c5Cl)c4F)ncnc3s2)c2ccccc12 [Example 106] ?
output: < 8.00

input: COC1(C)CCN(c2cccc3c2ncn3-c2nc3c(Nc4c(F)ccc(NS(=O)(=O)c5cccc(Cl)c5Cl)c4F)ncnc3s2)CC1 [Example 135] , same question.
output: 8.00 to 9.00

input: Another compound to check: Cc1c(F)cccc1S(=O)(=O)Nc1ccc(F)c(Nc2ncnc3sc(-n4nc(C(=O)N5C6CCC5CN(C)C6)c5ccccc54)nc23)c1F [Example 42]
output: < 8.00

---

Recorded HCT116 pERK (Ymin %) values for a group of compounds are listed next.
Tested on: pERK, HCT116 cells
Assay: Phospho-ERK inhibition, AlphaLISA p-ERK 1/2, HCT-116
Assay type: cell-based, human
Details: Table 3; lowest % inhibition value of the pERK IC50 curve; above −20% = no paradoxical induction
# output: bare number, implied unit %

// known answers, use as guide
Cc1c(F)cccc1S(=O)(=O)Nc1ccc(F)c(Nc2ncnc3sc(-n4nnc5ccccc54)nc23)c1F ... −8
COc1nccc2c1ncn2-c1nc2c(Nc3c(F)ccc(NS(=O)(=O)c4cccc(Cl)c4Cl)c3F)ncnc2s1 ... 4
CC(C)(C#N)c1cccc2c1ncn2-c1nc2c(Nc3c(F)ccc(NS(=O)(=O)c4cccc(Cl)c4Cl)c3F)ncnc2s1 ... −10
Cc1c(F)cccc1S(=O)(=O)Nc1ccc(F)c(Nc2ncnc3sc(-n4nc(C(=O)N(C)CCc5ccccn5)c5ccccc54)nc23)c1F ... 2
CC1(O)CN(C(=O)c2cn(-c3nc4c(Nc5c(F)ccc(NS(=O)(=O)c6cccc(Cl)c6Cl)c5F)ncnc4s3)c3ccccc23)C1 ... −10
Cc1c(F)cccc1S(=O)(=O)Nc1ccc(F)c(Nc2ncnc3sc(-n4nc(C(=O)N5C6CCC5COC6)c5ccccc54)nc23)c1F ... −13

input: Recorded HCT116 pERK (Ymin %) for CN(CC(F)F)S(=O)(=O)c1cn(-c2nc3c(Nc4c(F)ccc(NS(=O)(=O)c5cccc(Cl)c5Cl)c4F)ncnc3s2)c2ccccc12 , please?
output: −5

input: Same lookup for Cc1c(F)cccc1S(=O)(=O)Nc1ccc(F)c(Nc2ncnc3sc(-n4cc(C(=O)N5C6CCC5COC6)c5ccccc54)nc23)c1F , please.
output: −7

input: Same again, this time with O=S(=O)(CC1CCOCC1)c1cn(-c2nc3c(Nc4c(F)ccc(NS(=O)(=O)c5cccc(Cl)c5Cl)c4F)ncnc3s2)c2ccccc12
output: −3

input: Thanks! And O=S(=O)(Nc1ccc(F)c(Nc2ncnc3sc(-n4cnc5c(F)cccc54)nc23)c1F)c1cccc(Cl)c1Cl ?
output: 0

input: And then CC1(CO)CCN(c2cccc3c2ncn3-c2nc3c(Nc4c(F)ccc(NS(=O)(=O)c5cccc(Cl)c5Cl)c4F)ncnc3s2)CC1 , what is it?
output: −14

input: Same question, O=C(c1cn(-c2nc3c(Nc4c(F)ccc(NS(=O)(=O)c5cccc(Cl)c5Cl)c4F)ncnc3s2)c2ccc(Cl)cc12)N1C2CCC1COC2 this time
output: −8

input: Follow-up entry: O=S(=O)(Nc1ccc(F)c(Nc2ncnc3sc(-n4ccc5ccccc54)nc23)c1F)c1cccc(Cl)c1Cl
output: −14

---

Entries and their IC50
Molecular target: BRAF (Homo sapiens, UniProt P15056)
Construct: GST; purchased Millipore Sigma B4062-10UG
Experiment: BRAF kinase activity assay (ADP-Glo)
Assay type: biochemical
Settings: Table 3; 10 μM ATP, kinase-dead MEK1 substrate

input: Quick check: IC50 on BRAF (Homo sapiens, UniProt P15056), item O=C(c1cn(-c2nc3c(Nc4c(F)ccc(NS(=O)(=O)c5cccc(Cl)c5Cl)c4F)ncnc3s2)c2ccccc12)N1CC(O)(C(F)(F)F)C1 ?
output: > 10 nM

input: Same question for O=S(=O)(Nc1ccc(F)c(Nc2ncnc3sc(-n4cnc5c(C6(CO)CC6)cccc54)nc23)c1F)c1cccc(Cl)c1Cl please.
output: 1 to 10 nM

input: Then what about the compound CC1(O)CCCN(c2cccc3c2ncn3-c2nc3c(Nc4c(F)ccc(NS(=O)(=O)c5cccc(Cl)c5Cl)c4F)ncnc3s2)CC1 (stereo not shown) ?
output: > 10 nM

input: Moving on to the next compound: O=C1CCCC12CCN(c1cccc3c1ncn3-c1nc3c(Nc4c(F)ccc(NS(=O)(=O)c5cccc(Cl)c5Cl)c4F)ncnc3s1)CC2
output: 1 to 10 nM

input: Now the same for CCN(CCOC)S(=O)(=O)c1cn(-c2nc3c(Nc4c(F)ccc(NS(=O)(=O)c5cccc(Cl)c5Cl)c4F)ncnc3s2)c2ccccc12
output: > 10 nM

input: Try the compound CN(Cc1ccncc1)S(=O)(=O)c1cn(-c2nc3c(Nc4c(F)ccc(NS(=O)(=O)c5cccc(Cl)c5Cl)c4F)ncnc3s2)c2ccccc12
output: 1 to 10 nM

input: Record: O=C(c1cn(-c2nc3c(Nc4c(F)ccc(NS(=O)(=O)c5cccc(Cl)c5Cl)c4F)ncnc3s2)c2ccc(Cl)cc12)N1C2CCC1COC2
output: 1 to 10 nM

input: Also O=S1(=O)CCN(c2cccc3c2ncn3-c2nc3c(Nc4c(F)ccc(NS(=O)(=O)c5cccc(Cl)c5Cl)c4F)ncnc3s2)CC1 , if possible.
output: < 1 nM

input: Moving on to CCC1(O)CCN(c2cccc3c2ncn3-c2nc3c(Nc4c(F)ccc(NS(=O)(=O)c5cccc(Cl)c5Cl)c4F)ncnc3s2)CC1
output: 1 to 10 nM

input: What do you have for COCCN(C)S(=O)(=O)c1cn(-c2nc3c(Nc4c(F)ccc(NS(=O)(=O)c5cccc(Cl)c5Cl)c4F)ncnc3s2)c2ccccc12 ?
output: 1 to 10 nM

input: Also CN(C)CCN(C)S(=O)(=O)c1cn(-c2nc3c(Nc4c(F)ccc(NS(=O)(=O)c5cccc(Cl)c5Cl)c4F)ncnc3s2)c2ccccc12 , if possible.
output: < 1 nM

---

A collection of compounds and their measured IC50
Target: BRAF (Homo sapiens)
Construct: GST; purchased Millipore Sigma B4062-10UG
Assay: BRAF kinase activity assay (ADP-Glo)
Type: biochemical
Details: Table 3; 10 μM ATP, kinase-dead MEK1 substrate

O=S(=O)(Nc1ccc(F)c(Nc2ncnc3sc(-n4cnc(-c5ccccc5)c4)nc23)c1F)c1cccc(Cl)c1Cl [Example 109] ... > 10 nM
CC(C)(O)C1CN(C(=O)c2cn(-c3nc4c(Nc5c(F)ccc(NS(=O)(=O)c6cccc(Cl)c6Cl)c5F)ncnc4s3)c3ccccc23)C1 [Example 87] ... 1 to 10 nM
CN(C1CCOC1)S(=O)(=O)c1cn(-c2nc3c(Nc4c(F)ccc(NS(=O)(=O)c5cccc(Cl)c5Cl)c4F)ncnc3s2)c2ccccc12 (centres unmarked) [Example 66] ... 1 to 10 nM
Cc1c(F)cccc1S(=O)(=O)Nc1ccc(F)c(Nc2ncnc3sc(-n4cc(C(=O)N5CCC(CO)C5)c5ccccc54)nc23)c1F (centres unmarked) [Example 33] ... < 1 nM
O=C(c1cn(-c2nc3c(Nc4c(F)ccc(NS(=O)(=O)c5cccc(Cl)c5Cl)c4F)ncnc3s2)c2ccc(F)cc12)N1C2CCC1COC2 [Example 102] ... 1 to 10 nM

Next compound, please.
input: Dear colleague, I am looking for the recorded IC50 of the following compound: COc1nccc2c1ncn2-c1nc2c(Nc3c(F)ccc(NS(=O)(=O)c4cccc(Cl)c4Cl)c3F)ncnc2s1 [Example 105]
output: 1 to 10 nM
